Reported values of GI50 for individual entries
# Tested on: SW-620
# Measurement Description: Growth inhibition of human SW620 cells
# Type: functional
Give the number; µM is assumed, so skip it.

Task: Would you mind telling me what GI50 value was observed for Cc1ccc(-n2n[n+](C)c3c2C(=O)c2ccccc2C3=O)cc1.O=S(=O)([O-])C(F)(F)F ?
Result: 1.76

Task: Here is the next molecule: C[n+]1nn(-c2ccccc2)c2c1C(=O)c1ccccc1C2=O.[Cl-]
Result: 0.55

Task: Here is the next molecule: COc1cc(-n2n[n+](C)c3c2C(=O)c2ccccc2C3=O)cc(OC)c1OC.O=S(=O)([O-])C(F)(F)F
Result: 1.99

Task: Here is the next molecule: COc1cc(OC)cc(-n2n[n+](C)c3c2C(=O)c2ccccc2C3=O)c1.O=S(=O)([O-])C(F)(F)F
Result: 3

Task: Here is the next molecule: C[n+]1nn(-c2ccc(F)cc2)c2c1C(=O)c1ccccc1C2=O.O=S(=O)([O-])C(F)(F)F
Result: 6.12

Task: Here is the next molecule: COc1ccc(-n2n[n+](C)c3c2C(=O)c2ccccc2C3=O)cc1OC.O=S(=O)([O-])C(F)(F)F
Result: 1.66

Task: Here is the next molecule: C[n+]1nn(-c2ccc(C(F)(F)F)cc2)c2c1C(=O)c1ccccc1C2=O.O=S(=O)([O-])C(F)(F)F
Result: 14

Task: Here is the next molecule: COc1ccc(-n2n[n+](C)c3c2C(=O)c2ccccc2C3=O)cc1.O=S(=O)([O-])C(F)(F)F
Result: 0.38

====

Reported values of CC50 for individual entries
# Measurement Description: Growth inhibition of human HCC2998 cells
# Format: functional
# Condition Details: HCC 2998, read-out: LC50 (the source's name)
Could you write the number and then its unit?

In [3]: df
Out[3]:
                                        mol   result
0  C[n+]1nn(-c2ccc(F)cc2)c2c1C(=O)c1ccccc1C2=O.O=S(=O)([O-])C(F)(F)F  8.22 µM

Task: Would you mind telling me what CC50 value was observed for C[n+]1nn(-c2ccc(C(F)(F)F)cc2)c2c1C(=O)c1ccccc1C2=O.O=S(=O)([O-])C(F)(F)F ?
Result: 12.9 µM

Task: Here is the next compound: Cc1ccc(-n2n[n+](C)c3c2C(=O)c2ccccc2C3=O)cc1.O=S(=O)([O-])C(F)(F)F
Result: 5.4 µM

Task: Here is the next compound: C[n+]1nn(-c2ccccc2)c2c1C(=O)c1ccccc1C2=O.[Cl-]
Result: 3.69 µM

Task: Here is the next compound: COc1cc(-n2n[n+](C)c3c2C(=O)c2ccccc2C3=O)cc(OC)c1OC.O=S(=O)([O-])C(F)(F)F
Result: 8.22 µM

Task: Here is the next compound: COc1cc(OC)cc(-n2n[n+](C)c3c2C(=O)c2ccccc2C3=O)c1.O=S(=O)([O-])C(F)(F)F
Result: 8.99 µM

Task: Here is the next compound: COc1ccc(-n2n[n+](C)c3c2C(=O)c2ccccc2C3=O)cc1.O=S(=O)([O-])C(F)(F)F
Result: 4.72 µM

Task: Here is the next compound: COc1ccc(-n2n[n+](C)c3c2C(=O)c2ccccc2C3=O)cc1OC.O=S(=O)([O-])C(F)(F)F
Result: 5.79 µM

Origin of values: ChEMBL document CHEMBL3232814
